- Conditions: human gut metagenome, 24 h, 2 µM; further: call rule not given here
Reported Metric: Bacterial Biotransformation

>  <Compound>
CN1CCC[C@@H]1CCO[C@](C)(c1ccccc1)c1ccc(Cl)cc1.O=C(O)/C=C/C(=O)O [CLEMASTINE FUMARATE]

>  <Result>
Compound NOT metabolized

$$$$
>  <Compound>
COc1cc(NC(C)CCCN)c2ncccc2c1.O=P(O)(O)O.O=P(O)(O)O (stereo unspecified) [PRIMAQUINE PHOSPHATE]

>  <Result>
Compound NOT metabolized

$$$$
>  <Compound>
CNNCc1ccc(C(=O)NC(C)C)cc1 [PROCARBAZINE]

>  <Result>
Compound NOT metabolized

$$$$
>  <Compound>
C[N+]12CCC(CC1)C(OC(=O)C(O)(c1ccccc1)c1ccccc1)C2.[Br-] (stereo unspecified) [CLIDINIUM BROMIDE]

>  <Result>
Compound NOT metabolized

$$$$
>  <Compound>
CC(C)c1nc(N(C)S(C)(=O)=O)nc(-c2ccc(F)cc2)c1/C=C/[C@@H](O)C[C@@H](O)CC(=O)[O-].CC(C)c1nc(N(C)S(C)(=O)=O)nc(-c2ccc(F)cc2)c1/C=C/[C@@H](O)C[C@@H](O)CC(=O)[O-].[Ca+2] [ROSUVASTATIN CALCIUM]

>  <Result>
Compound metabolized

$$$$

// moving on: another record for Bacterial Biotransformation
Q: # query: Bacterial Biotransformation of entry O=C1CC2(CCCC2)CC(=O)N1CCCCN1CCN(c2ncccn2)CC1 [BUSPIRONE]
Ans: Compound metabolized

From: ChEMBL document CHEMBL5724914
